Each record here notes measured Activity.
assay: Chemical stability assessed as enzymatic stability at 100 uM after 20 mins in presence of human NTPDase3; format: physicochemical

molecule	measurement.units	Activity
BP(=O)(OC[C@H]1O[C@@H](n2cnc3c(N)nc(SC)nc32)[C@H](O)[C@@H]1O)OP(=O)(O)C(F)(F)P(=O)(O)O (stereo in doubt; 10A)	%	4.4
CSc1nc(N)c2ncn([C@@H]3O[C@H](COP(=O)(O)OP(=O)(O)C(F)(F)P(=O)(O)O)[C@@H](O)[C@H]3O)c2n1	%	2.6
BP(=O)(OC[C@H]1O[C@@H](n2cnc3c(N)nc(SC)nc32)[C@H](O)[C@@H]1O)OP(=O)(O)C(Cl)(Cl)P(=O)(O)O (stereo in doubt; 12A)	%	0.3
BP(=O)(OC[C@H]1O[C@@H](n2cnc3c(N)ncnc32)[C@H](O)[C@@H]1O)OP(=O)(O)C(Cl)(Cl)P(=O)(O)O (stereo in doubt; 11B)	%	3.1
BP(=O)(OC[C@H]1O[C@@H](n2cnc3c(N)ncnc32)[C@H](O)[C@@H]1O)OP(=O)(O)C(Cl)(Cl)P(=O)(O)O (stereo in doubt; 11A)	%	2.6

----------
assay: Chemical stability assessed as enzymatic stability at 100 uM after 20 mins in presence of human NTPDase8; type: physicochemical
recorded.metric: Activity (%)

molecule	result
BP(=O)(OC[C@H]1O[C@@H](n2cnc3c(N)ncnc32)[C@H](O)[C@@H]1O)OP(=O)(O)C(Cl)(Cl)P(=O)(O)O (stereo in doubt; 11A)	4.4
BP(=O)(OC[C@H]1O[C@@H](n2cnc3c(N)nc(SC)nc32)[C@H](O)[C@@H]1O)OP(=O)(O)C(F)(F)P(=O)(O)O (stereo in doubt; 10A)	1.7
BP(=O)(OC[C@H]1O[C@@H](n2cnc3c(N)nc(SC)nc32)[C@H](O)[C@@H]1O)OP(=O)(O)C(Cl)(Cl)P(=O)(O)O (stereo in doubt; 12B)	1.8
CSc1nc(N)c2ncn([C@@H]3O[C@H](COP(=O)(O)C(F)(F)P(=O)(O)O)[C@@H](O)[C@H]3O)c2n1	0.1
CSc1nc(N)c2ncn([C@@H]3O[C@H](COP(=O)(O)OP(=O)(O)C(F)(F)P(=O)(O)O)[C@@H](O)[C@H]3O)c2n1	5.2
BP(=O)(OC[C@H]1O[C@@H](n2cnc3c(N)ncnc32)[C@H](O)[C@@H]1O)OP(=O)(O)C(Cl)(Cl)P(=O)(O)O (stereo in doubt; 11B)	4

----------
assay: Association constant pKa of the compound; format: physicochemical

molecule	pKa
CSc1nc(N)c2ncn([C@@H]3O[C@H](COP(=O)(O)OP(=O)(O)C(Cl)(Cl)P(=O)(O)O)[C@@H](O)[C@H]3O)c2n1	7
BP(=O)(OC[C@H]1O[C@@H](n2cnc3c(N)ncnc32)[C@H](O)[C@@H]1O)OP(=O)(O)CP(=O)(O)O (stereo not given in full)	8.4
CSc1nc(N)c2ncn([C@@H]3O[C@H](COP(=O)(O)C(Cl)(Cl)P(=O)(O)O)[C@@H](O)[C@H]3O)c2n1	7
BP(=O)(OC[C@H]1O[C@@H](n2cnc3c(N)nc(SC)nc32)[C@H](O)[C@@H]1O)OP(=O)(O)C(F)(F)P(=O)(O)O (stereo in doubt; 10A)	7
BP(=O)(OC[C@H]1O[C@@H](n2cnc3c(N)ncnc32)[C@H](O)[C@@H]1O)OP(=O)(O)C(Cl)(Cl)P(=O)(O)O (stereo in doubt; 11A)	7

Source: ChEMBL document CHEMBL1156201
